# System: sebaceous glands of the left ear
# procedure.text: Topical antiandrogenic activity, ear sebaceous glands model in the male hamster
# Type: in vivo
# stated.conditions: Mesocricetus auratus, 336 h, 10 μg daily for 14 days, topical on left pinna, read-out: Antiandrogenic activity in Hamster Ear Area Inh Vs Cx (%)
observable: inhibition in vivo at 0.01 mg (%)
Numeric only. Scale: %

Reported inhibition in vivo at 0.01 mg for CCC[C@H](NC1CCCCC1)c1cccc(OCC[C@]23CCC4C(CCC5CC(=O)CC[C@@]54C)C2CCC3=O)c1 (some centres unmarked) [EM-6736] : what is it?
49.5

Reported inhibition in vivo at 0.01 mg for CC(C)CN1CCCCC1c1cccc(OCC[C@]23CCC4C(CCC5CC(=O)CC[C@@]54C)C2CC[C@@H]3O)c1 (some centres unmarked) [EM-6493] : what is it?
44

Reported inhibition in vivo at 0.01 mg for CCN(C1CCCCC1)[C@H](C)c1cccc(OCC[C@]23CCC4C(CCC5CC(=O)CC[C@@]54C)C2CC[C@@H]3O)c1 (some centres unmarked) [EM-6414] : what is it?
55

Reported inhibition in vivo at 0.01 mg for CCC(CC)NC(CC)c1cccc(OCC[C@]23CCC4C(CCC5CC(=O)CC[C@@]54C)C2CC[C@@H]3O)c1 (some centres unmarked) [EM-6339] : what is it?
55

Reported inhibition in vivo at 0.01 mg for COC1CCC2C3CCC4CC(=O)CC[C@]4(C)C3CC[C@]12CCOc1cccc(C(C)(C)NCC(C)C)c1 (some centres unmarked) [EM-6628] : what is it?
58.1

----------
Provide the recorded Androgen Receptor Binding (%) Human RBA R1881 = 100 for the entries that follow.
# system: UniProt:P10275
# procedure.text: Androgen receptor binding assay (hydroxylapatite, [3H]R1881, cytosol of transfected HEK-293 cells)
# stated.conditions: % RBA=100×IC50 R1881/IC50 compound, transfected cells
Numeric only. Scale: %

So what Androgen Receptor Binding (%) Human RBA R1881 = 100 did CCC(NC(C)CC(F)(F)F)c1cccc(OCC[C@]23CCC4C(CCC5CC(=O)CC[C@@]54C)C2CC[C@@H]3O)c1 (stereo partly shown) [EM-6700] get with UniProt:P10275?
670

So what Androgen Receptor Binding (%) Human RBA R1881 = 100 did CCC(NC1CCCCC1)c1cncc(OCC[C@]23CCC4C(CCC5CC(=O)CC[C@@]54C)C2CCC3O)c1 (stereo partly shown) [EM-7093] get with UniProt:P10275?
361.8

So what Androgen Receptor Binding (%) Human RBA R1881 = 100 did O=C1C=C2CCC3C(CC[C@@]4(CCOc5cccc(C[S+]([O-])c6ccccc6)c5)C3CC[C@@H]4O)C2CC1 (stereo partly shown) [EM-6847] get with UniProt:P10275?
3.2

So what Androgen Receptor Binding (%) Human RBA R1881 = 100 did CCC[C@H](NC(CC)CC)c1cccc(OCC[C@]23CCC4C(CCC5CC(=O)CC[C@@]54C)C2CC[C@@H]3O)c1 (stereo in doubt) [EM-6445] get with UniProt:P10275?
168

So what Androgen Receptor Binding (%) Human RBA R1881 = 100 did CC(NC1CCCCC1)c1cccc(OCC[C@]23CCC4C(CCC5C/C(=N\O)CC[C@@]54C)C2CC[C@@H]3O)c1 (stereo partly shown) [EM-6418] get with UniProt:P10275?
31

So what Androgen Receptor Binding (%) Human RBA R1881 = 100 did CCCN(Cc1cccc(OCC[C@]23CCC4C(CCC5CC(=O)CC[C@@]54C)C2CC[C@@H]3O)c1)C1CCCC1 (stereo partly shown) [EM-6567] get with UniProt:P10275?
126

So what Androgen Receptor Binding (%) Human RBA R1881 = 100 did CCCC(NC1CCCC1)c1cccc(OCC[C@]23CCC4C5CCC(=O)C=C5C[C@H](C)C4C2CC[C@]3(C)O)c1 (stereo partly shown) [EM-7218] get with UniProt:P10275?
112

----------
# system: Human Androgen Receptor (Homo sapiens, UniProt P10275)
# Sequence (P10275 whole entry): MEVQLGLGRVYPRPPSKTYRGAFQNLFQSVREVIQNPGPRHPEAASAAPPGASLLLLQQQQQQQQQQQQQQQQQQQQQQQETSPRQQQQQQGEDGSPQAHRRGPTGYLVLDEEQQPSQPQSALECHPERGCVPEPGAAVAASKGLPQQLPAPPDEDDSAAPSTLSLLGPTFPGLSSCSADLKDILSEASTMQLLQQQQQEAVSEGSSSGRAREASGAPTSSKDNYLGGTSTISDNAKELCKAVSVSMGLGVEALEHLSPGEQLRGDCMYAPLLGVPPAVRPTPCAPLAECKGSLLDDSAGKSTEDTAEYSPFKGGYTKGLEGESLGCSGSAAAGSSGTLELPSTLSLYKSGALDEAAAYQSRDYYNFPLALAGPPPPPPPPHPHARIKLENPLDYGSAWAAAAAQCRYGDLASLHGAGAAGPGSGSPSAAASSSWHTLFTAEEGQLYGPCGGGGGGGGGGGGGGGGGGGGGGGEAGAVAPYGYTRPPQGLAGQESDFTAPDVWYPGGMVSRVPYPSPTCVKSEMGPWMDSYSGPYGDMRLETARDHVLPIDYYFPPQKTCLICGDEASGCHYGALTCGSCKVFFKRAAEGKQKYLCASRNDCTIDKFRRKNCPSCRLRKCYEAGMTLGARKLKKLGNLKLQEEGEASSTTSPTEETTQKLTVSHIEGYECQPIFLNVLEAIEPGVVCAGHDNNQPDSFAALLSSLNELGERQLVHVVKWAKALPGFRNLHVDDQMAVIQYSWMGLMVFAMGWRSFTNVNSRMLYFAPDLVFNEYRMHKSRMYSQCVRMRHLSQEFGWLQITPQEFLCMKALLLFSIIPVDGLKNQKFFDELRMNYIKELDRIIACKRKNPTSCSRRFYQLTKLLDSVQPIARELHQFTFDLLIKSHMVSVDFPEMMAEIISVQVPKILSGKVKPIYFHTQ
# procedure.text: Androgen receptor binding assay (hydroxylapatite, [3H]R1881, cytosol of transfected HEK-293 cells)
# stated.conditions: % RBA=100×IC50 R1881/IC50 compound, transfected cells
observable: Androgen Receptor Binding (%) Human RBA R1881 = 100
Numeric only. Scale: %

Reported Androgen Receptor Binding (%) Human RBA R1881 = 100 for CCCCC(NC1CCCCC1)c1cccc(OCC[C@]23CCC4C(CCC5CC(=O)CC[C@@]54C)C2CCC3O)c1 (stereo partly drawn) : what is it?
115.5

Reported Androgen Receptor Binding (%) Human RBA R1881 = 100 for CCC(CC)N[C@@H](CC)c1cccc(OCC[C@]23CCC4C(CCC5N(C)C(=O)CC[C@]45C)C2CC[C@@H]3O)c1 (stereo partly drawn) : what is it?
5.8

Reported Androgen Receptor Binding (%) Human RBA R1881 = 100 for CCCN(C1CC1)C(CC)c1cccc(OCC[C@]23CCC4C(CCC5CC(=O)CC[C@@]54C)C2CC[C@@H]3O)c1 (stereo partly drawn) : what is it?
2385

Reported Androgen Receptor Binding (%) Human RBA R1881 = 100 for CCC(NC(C)C)c1cccc(OCC[C@]23CCC4C(CCC5=CC(=O)CC[C@@]54C)C2CC[C@]3(C)O)c1 (stereo partly drawn) : what is it?
120

Reported Androgen Receptor Binding (%) Human RBA R1881 = 100 for CCC1COCC(c2cccc(OCC[C@]34CCC5C(CCC6CC(=O)CC[C@@]65C)C3CCC4O)c2)N1 (stereo partly drawn) : what is it?
39

Reported Androgen Receptor Binding (%) Human RBA R1881 = 100 for Cc1ccc(CNC2CCCCC2)cc1OCC[C@]12CCC3C(CCC4CC(=O)CC[C@@]43C)C1CC[C@@H]2O (stereo partly drawn) : what is it?
33

Reported Androgen Receptor Binding (%) Human RBA R1881 = 100 for C[C@@H]1C(NCc2cccc(OCC[C@]34CCC5C(CCC6CC(=O)CC[C@@]65C)C3CC[C@@H]4O)c2)CCC[C@@H]1C (stereo partly drawn) : what is it?
80

Reported Androgen Receptor Binding (%) Human RBA R1881 = 100 for CCC(NC1CCOCC1)c1cncc(OCC[C@]23CCC4C(CCC5CC(=O)CC[C@@]54C)C2CCC3O)c1 (stereo partly drawn) : what is it?
66.2

Reported Androgen Receptor Binding (%) Human RBA R1881 = 100 for CCCC(NC(CC)CC)c1cccc(OCC[C@]23CCC4C5CCC(=O)C=C5C(C)(C)CC4C2CC[C@]3(C)O)c1 (mixture of isomers) : what is it?
57

Reported Androgen Receptor Binding (%) Human RBA R1881 = 100 for CCC(NC(C)C)c1cc(OCC[C@]23CCC4C(CCC5=CC(=O)CC[C@@]54C)C2CCC3O)ccn1 (stereo partly drawn) : what is it?
42

Reported Androgen Receptor Binding (%) Human RBA R1881 = 100 for CCCC(NC1CCCC1)c1cccc(OCC[C@]23CCC4C(CCC5CC(=O)CC[C@@]54C)C2CC[C@@H]3O)c1 (stereo partly drawn) : what is it?
174.2

Reported Androgen Receptor Binding (%) Human RBA R1881 = 100 for CCC(NC1CCOCC1)c1cccc(OCC[C@]23CCC4C(CCC5CC(F)=CC[C@@]54C)C2CCC3O)c1 (stereo partly drawn) : what is it?
32

Reported Androgen Receptor Binding (%) Human RBA R1881 = 100 for CCC(NC1CCCC1)c1cccc(OCC[C@]23CCC4C5CCC(=O)C=C5C[C@@H](C)C4C2CC[C@]3(C)O)c1 (mixture of isomers) : what is it?
62

Reported Androgen Receptor Binding (%) Human RBA R1881 = 100 for CCC[C@]1(O)CCC2C3CCC4CC(=O)CC[C@]4(C)C3CC[C@@]21CCOc1cccc(C(CC)NC(CC)CC)c1 (stereo partly drawn) : what is it?
41

Reported Androgen Receptor Binding (%) Human RBA R1881 = 100 for CCCC(NC1CCCC1)c1cccc(OCC[C@]23CCC4C(CCC5CC(=O)CC[C@@]54C)C2CCC3=O)c1 (stereo partly drawn) : what is it?
132.5

----------
# system: Human Androgen Receptor (Homo sapiens)
# procedure.text: Androgen receptor binding assay (hydroxylapatite, [3H]R1881, cytosol of transfected HEK-293 cells)
# stated.conditions: Table 4; relative to R1881
Provide the recorded RBA human for the entries that follow.
Numeric only. Scale: %

So what RBA human did CC(C)CN1CCCCC1c1cccc(OCC[C@]23CCC4C(CCC5CC(=O)CC[C@@]54C)C2CC[C@@H]3O)c1 (some centres unmarked) [EM-6493] get with Human Androgen Receptor (Homo sapiens)?
173

So what RBA human did CCC(NC1CCCC1)c1cccc(OCC[C@]23CCC4C(CCC5CC(=O)CC[C@@]54C)C2CC[C@@H]3OC)c1 (some centres unmarked) [EM-6640] get with Human Androgen Receptor (Homo sapiens)?
438

So what RBA human did CCN(C1CCCCC1)[C@H](C)c1cccc(OCC[C@]23CCC4C(CCC5CC(=O)CC[C@@]54C)C2CC[C@@H]3O)c1 (some centres unmarked) [EM-6414] get with Human Androgen Receptor (Homo sapiens)?
71

So what RBA human did CCC(CC)NC(c1cccc(OCC[C@]23CCC4C(CCC5CC(=O)CC[C@@]54C)C2CC[C@@H]3O)c1)C(C)C (some centres unmarked) [EM-6446] get with Human Androgen Receptor (Homo sapiens)?
715

So what RBA human did CCC(CC)NC(CC)c1cccc(OCC[C@]23CCC4C(CCC5CC(=O)CC[C@@]54C)C2CC[C@@H]3O)c1 (some centres unmarked) [EM-6339] get with Human Androgen Receptor (Homo sapiens)?
236

So what RBA human did COC1CCC2C3CCC4CC(=O)CC[C@]4(C)C3CC[C@]12CCOc1cccc(C(C)(C)NCC(C)C)c1 (some centres unmarked) [EM-6628] get with Human Androgen Receptor (Homo sapiens)?
796

So what RBA human did CC[C@H](NC1CCCCC1)c1cccc(OCC[C@]23CCC4C(CCC5CC(=O)CC[C@@]54C)C2CC[C@@H]3O)c1 (some centres unmarked) [EM-6415] get with Human Androgen Receptor (Homo sapiens)?
185

So what RBA human did CC(C)CNC(C)(C)c1cccc(OCC[C@]23CCC4C(CCC5CC(=O)CC[C@@]54C)C2CC[C@@H]3O)c1 (some centres unmarked) [EM-6534] get with Human Androgen Receptor (Homo sapiens)?
112

So what RBA human did CCC(CC)N(C)C(CC)c1cccc(OCC[C@]23CCC4C5CCC(=O)C=C5CCC4C2CC[C@@H]3O)c1 (some centres unmarked) [EM-6680] get with Human Androgen Receptor (Homo sapiens)?
140

So what RBA human did CCCCCN1CCCCC1c1cccc(OCC[C@]23CCC4C(CCC5CC(=O)CC[C@@]54C)C2CC[C@@H]3O)c1 (some centres unmarked) [EM-6494] get with Human Androgen Receptor (Homo sapiens)?
97

So what RBA human did CC(C)CNC(C)(C)c1cccc(OCC[C@]23CCC4C(CCC5CC(=O)CC[C@@]54C)C2CCC3=O)c1 (some centres unmarked) [EM-6741] get with Human Androgen Receptor (Homo sapiens)?
230

So what RBA human did CCC[C@H](NC(CC)CC)c1cccc(OCC[C@]23CCC4C(CCC5CC(=O)CC[C@@]54C)C2CC[C@@H]3O)c1 (stereo in doubt) [EM-6445] get with Human Androgen Receptor (Homo sapiens)?
336

So what RBA human did CCCC(NC(CC)CC)c1cccc(OCC[C@]23CCC4C(CCC5CC(=O)CC[C@@]54C)C2CCC3=O)c1 (some centres unmarked) [EM-6842] get with Human Androgen Receptor (Homo sapiens)?
451

So what RBA human did CCC[C@H](NC1CCCCC1)c1cccc(OCC[C@]23CCC4C(CCC5CC(=O)CC[C@@]54C)C2CCC3=O)c1 (some centres unmarked) [EM-6736] get with Human Androgen Receptor (Homo sapiens)?
154

Measured values drawn from patent US9090651B2 for this set.
